# Assay Procedure: Thermal melts monitored by circular dichroism at 222 nm (coiled coil peptides)
# Type: physicochemical
# Experimental Setup: surface designs on GCN4-p1, pH 7.0, 40 μM
As shown below, each of these substances has a reported Tm value.
Respond numerically; units are °C and should not be typed.

>>> numeric_value("Ac-RMRELEEKVRRLLRKNEDLEREVKRLKELVGER-NH2 [6D]")
71

INPUT: May I ask what Tm has been recorded for Ac-RMEKLEDKVRELLRKNRRLEEEVRRLKELVGER-NH2 [6A] ?
OUTPUT: 71

INPUT: Item: Ac-RMEKLEQKVKELLRKNERLEEEVERLKQLVGER-NH2 [6B]
OUTPUT: 72

INPUT: Item: Ac-RMARLEAKVAALLAKNRRLEREVARLKALVGER-NH2 [6C]
OUTPUT: 69

INPUT: Item: Ac-RMAALEAKVAALLAKNAALEAEVAALKALVGER-NH2 [6F]
OUTPUT: 73

INPUT: Item: Ac-RMNTLERKVAKLLSKNANLEHEVNTLKQLVGER-NH2 [6E]
OUTPUT: 15
